Sourced from the EternaBench riboswitch data

Test system: MS2 coat protein
measurement-protocol: apparent Kd, MS2 coat protein; higher = weaker binding; RNA-MaP array
run-conditions: designed as: ON switch for flavin mononucleotide; no ligand
measure-name: apparent Kd (nM)
Your answer is read as nM, so omit the unit and give the number.

# annotated cases, reported apparent Kd shown
{"sequence": "GCGGUACAUGAGGAUCACCCAUGUGAUUUAACAGGUUUCAUCAGAAGGACUCACGGUUUGCGACAGUAGGAUAUGAAGGGUAAG", "apparent Kd / nM": 34.6}
{"sequence": "GUUCCCUCACAGAAGGAGUGUGUUAGUUGCACAUGAGGAUCACCCAUGUAAUAAACACGUGGCCACUAGGAUAUGUUAAACUGC", "apparent Kd / nM": 12.9}
{"sequence": "AUUGAACGUGCAGGAUAUCAAAACCGGAAUCGUUGAGAAGGGCAGUAAUCGGAGAGCACAUGAGGAUCACCCAUGUUCAAUCGA", "apparent Kd / nM": 15.9}

Lab note: next sequence to report on.
INPUT: Suppose we examine the sequence "CGAGUCUUAUAGAAGGUAGACAUGAGGAUCACCCAUGUACUGGCAACGAAUAGUCGUAGUACACCUAAGGAUAUAUGGGAUGAG" ; what apparent Kd value has been reported?
OUTPUT: 74.7
